Species: Homo sapiens
Test: Selectivity ratio of IC50 for wild-type EGFR (unknown origin) to IC50 for EGFR T790M/L858R double mutant (unknown origin)
QUANTITY: Ratio IC50
API doc: respond with a numeric literal and nothing else, no unit.

C=CC(=O)Nc1cc(Nc2ncc(C#N)c(-c3cn(C)c4ccccc34)n2)c(OC)cc1N(C)CCN(C)C: 12.4
C=C(Cl)C(=O)Nc1cc(Nc2nccc(-c3cn(C)c4ccccc34)n2)c(OC)cc1N(C)CCN(C)C: 7.8

Look up and state reported Ratio IC50 for "COc1cc(N(C)CCN(C)C)c(NC(=O)/C=C\C(C)C)cc1Nc1ncc(C#N)c(-c2cn(C)c3ccccc23)n1"
4.5

Cited source: ChEMBL document CHEMBL4411272
